target_or_test_system: PD-L1 (Homo sapiens (Human), UniProt Q9NZQ7)
Sequence (Q9NZQ7 19-290): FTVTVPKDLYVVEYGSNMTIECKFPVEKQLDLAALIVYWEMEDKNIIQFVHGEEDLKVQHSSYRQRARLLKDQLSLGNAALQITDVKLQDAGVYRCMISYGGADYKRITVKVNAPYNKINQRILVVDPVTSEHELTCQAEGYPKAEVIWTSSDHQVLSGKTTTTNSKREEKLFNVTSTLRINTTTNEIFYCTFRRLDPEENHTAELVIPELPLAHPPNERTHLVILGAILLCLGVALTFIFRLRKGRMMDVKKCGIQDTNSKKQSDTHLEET
protocol_notes: PD-L1 whole blood internalization assay
setup_conditions: 1 ng/ml human interferon γ, PD-L1 expression on CD14+ cells, read-out: Whole Blood (24 HR) IC50
pIC50: −log10 of the molar value.
// reported pIC50 per item
assay_metric: pIC50

[[record]]
structure = "Cc1c(Nc2nc(C3CC3)nc3cc(CN4CC[C@@H](O)C4)cnc23)cccc1-c1cccc(-c2nc3cc(CN4CC[C@@H](C(=O)O)C4)cc(C#N)c3o2)c1C"
assay_metric = "pIC50"
measurement = "6.30 to 7.00"

[[record]]
structure = "Cc1nc(Nc2cccc(-c3cccc(-c4nc5cc(CN6CCC(C(=O)O)CC6)cc(C#N)c5o4)c3C)c2C)c2ncc(CN3CC[C@](C)(O)C3)cc2n1"
assay_metric = "pIC50"
measurement = "7.00 to 8.00"

[[record]]
structure = "Cc1nc(Nc2cccc(-c3cccc(-c4nc5cc(CN6CCC(C(=O)O)CC6)cc(C#N)c5o4)c3C)c2C)c2ncc(CN3CC[C@@H](O)C3)cc2n1"
assay_metric = "pIC50"
measurement = "7.00 to 8.00"

[[record]]
structure = "Cc1c(Nc2nc(C(F)F)nc3cc(CN4CC[C@@H](O)C4)cnc23)cccc1-c1cccc(-c2nc3cc(CN4CCC(C(=O)N(C)C)CC4)cc(C#N)c3o2)c1C"
assay_metric = "pIC50"
measurement = "7.00 to 8.00"

[[record]]
structure = "Cc1c(Nc2nc(C(F)F)cc3cc(CN4CC[C@@H](O)C4)cnc23)cccc1-c1cccc(-c2nc3cc(CN4CC[C@@](C)(C(=O)O)C4)cc(C#N)c3o2)c1C"
assay_metric = "pIC50"
measurement = "6.30 to 7.00"

[[record]]
structure = "Cc1c(Nc2nc(C(F)F)nc3cc(CN4CC[C@@H](O)C4)cnc23)cccc1-c1cccc(-c2nc3cc(CN4CC[C@@](C)(C(=O)O)C4)cc(C#N)c3o2)c1C"
assay_metric = "pIC50"
measurement = "7.00 to 8.00"

[[record]]
structure = "CNC(=O)C1CCN(Cc2cc(C#N)c3oc(-c4cccc(-c5cccc(Nc6nc(C(F)F)nc7cc(CN8CC[C@@H](O)C8)cnc67)c5C)c4C)nc3c2)CC1"
assay_metric = "pIC50"
measurement = "7.00 to 8.00"

[[record]]
structure = "Cc1c(Nc2nc(C(F)F)nc3cc(CN4CC[C@@H](O)C4)cnc23)cccc1-c1cccc(-c2nc3cc(CN4CC[C@](C)(C(=O)O)C4)cc(C#N)c3o2)c1C"
assay_metric = "pIC50"
measurement = "7.00 to 8.00"

[[record]]
structure = "Cc1nc(Nc2cccc(-c3cccc(-c4nc5cc(CN6CCC(C(=O)O)CC6)cc(C#N)c5o4)c3C)c2C)c2ncc(CN3CC[C@@](C)(O)C3)cc2n1"
assay_metric = "pIC50"
measurement = "7.00 to 8.00"

[[record]]
structure = "Cc1cc2cc(CN3CC[C@@H](O)C3)cnc2c(Nc2cccc(-c3cccc(-c4nc5cc(CN6CC[C@@H](C(=O)O)C6)cc(C#N)c5o4)c3C)c2C)n1"
assay_metric = "pIC50"
measurement = "7.00 to 8.00"

